Answer each item with its documented growth.
system: A549/ATCC NSCLC; experiment: NCI-60 one-dose screen, 48 h (100 = growth as untreated, 0 = no growth, -100 = all killed); settings: 10 µM unless noted
The panel holds about 83,000 compounds, 20% with a hit somewhere; the sample as a whole holds those more often.
Give bare numbers, in %.

- MOLECULE: "Nc1nc(N)c2nc(-c3cccc(O)c3)c(-c3cccc(O)c3)nc2n1"
  UNIT TAG: "%"
  growth: 75.1

I need growth for every entry listed below, if you could help.
1. Cc1cc(C(O)CN(C)C)cc2c1ccc1cc(C(C)C)ccc12 (stereo not drawn)
2. O=C1C=CC2(NN=C(c3ccccc3)N2c2cccc(Cl)c2)c2cccc(O)c21 (stereo not drawn)

1: 32.9; 2: 33.2

* * *

Answer each item with its documented growth.
system: HCT-15 colon; assay: NCI-60 one-dose screen, 48 h (100 = growth as untreated, 0 = no growth, -100 = all killed); conditions: 10 µM unless noted
The panel holds about 83,000 compounds, 20% with a hit somewhere; the sample as a whole holds those more often.
One number for each entry, in %.

Worked examples follow.
- COMPOUND: "CC12O[C@H](C[C@@H](OC(=O)CCC(=O)O)[C@H]1O)n1c3ccccc3c3c4c(c5c6ccccc6n2c5c31)C(=O)NC4=O"
  growth [%]: 15
- COMPOUND: "CCNC(=O)C#Cc1ccc2c(C(=Nc3ccc(CN(C)C)cc3)c3ccccc3)c(O)[nH]c2c1"
  growth [%]: 27.7

I need growth for every entry listed below, if you could help.
1. COc1ccc(OC)c(NC2=C(SCCc3ccccc3)C(=O)c3ccccc3C2=O)c1
2. CC[C@@H]1C(=O)N(C)c2cnc(Nc3ccc(C(=O)NC4CCN(C)CC4)cc3OC)nc2N1C1CCCC1
3. O=C1C=CC2(NN=C(c3ccccc3)N2c2ccccc2)c2cccc(O)c21 (stereo not drawn)
4. CCOc1cc2ncc(C#N)c(Nc3ccc(OCc4ccccn4)c(Cl)c3)c2cc1NC(=O)/C=C/CN(C)C
5. CNC(=O)c1cc(Oc2ccc(NC(=O)Nc3cc(C(C)(C)C)nn3-c3ccc4ncccc4c3)c(F)c2)ccn1
6. CC(C)(C)CC(C)(C)Nc1c(-c2c(O)c3ccccc3oc2=O)nc2c(Cl)cc(C(F)(F)F)cn12

64.2
4.6
16.8
-0.289
-12.9
107

* * *

Answer each item with its documented growth.
tested on: CCRF-CEM leukemia; assay: NCI-60 one-dose screen, 48 h (100 = growth as untreated, 0 = no growth, -100 = all killed); settings: 10 µM unless noted
About 83,000 compounds went through this panel and 20% of them were active in at least one assay; those are over-represented in the sample as a whole.
Give bare numbers, in %.

Worked examples follow.
- GIVEN SMILES: "CN1CCN(c2ccc(C(=O)Nc3n[nH]c4ccc(Cc5cc(F)cc(F)c5)cc34)c(NC3CCOCC3)c2)CC1"
  growth (%): 1.8
- GIVEN SMILES: "CS(=O)(=O)CCNCc1ccc(-c2ccc3ncnc(Nc4ccc(OCc5cccc(F)c5)c(Cl)c4)c3c2)o1"
  growth (%): 5.76
- GIVEN SMILES: "O=C(NOCCO)c1cc(CN2OCCCC2=O)c(F)c(F)c1Nc1ccc(I)cc1F"
  growth (%): 101
- GIVEN SMILES: "N#Cc1cc2[nH]c3ccc(OC(F)(F)F)cc3c2oc1=O"
  growth (%): 90.4
- GIVEN SMILES: "CCN(CC)CCNC(=O)c1c(C)[nH]c(/C=C2\\C(=O)Nc3ccc(F)cc32)c1C"
  growth (%): 7.54
- GIVEN SMILES: "CC(C)(C)c1cnc(CSc2cnc(NC(=O)C3CCNCC3)s2)o1"
  growth (%): 7.55
- GIVEN SMILES: "CO[C@H]1C[C@@H]2CC[C@@H](C)[C@@](O)(O2)C(=O)C(=O)N2CCCC[C@H]2C(=O)O[C@H]([C@H](C)C[C@@H]2CC[C@@H](OC(=O)C(C)(CO)CO)[C@H](OC)C2)CC(=O)[C@H](C)/C=C(\\C)[C@@H](O)[C@@H](OC)C(=O)[C@H](C)C[C@H](C)\\C=C/C=C/C=C/1C"
  growth (%): 16.2
- GIVEN SMILES: "Cc1[nH]c(/C=C2\\C(=O)Nc3ccc(F)cc32)c(C)c1C(=O)NC[C@H](O)CN1CCOCC1"
  growth (%): 33
- GIVEN SMILES: "CN[C@@H]1C[C@H]2O[C@@](C)([C@@H]1OC)n1c3ccccc3c3c4c(c5c6ccccc6n2c5c31)C(=O)N[C@H]4O"
  growth (%): 0.26

growth lookup needed for "COc1cc(N2CCC(N3CCN(C)CC3)CC2)ccc1Nc1ncnc(Nc2ccccc2S(=O)(=O)C(C)C)n1" , thanks.
92.9
